Value source: patent US12037324B2

Would you mind telling me the reported EC50 of each entry?
target: hAT1R (Homo sapiens); assay: BRET Gq biosensor assay, agonist response, HEK293 cells; format: cell-based; conditions: section of the 42nd table directly before the BRET P63 section
Sequence (P30556 whole entry): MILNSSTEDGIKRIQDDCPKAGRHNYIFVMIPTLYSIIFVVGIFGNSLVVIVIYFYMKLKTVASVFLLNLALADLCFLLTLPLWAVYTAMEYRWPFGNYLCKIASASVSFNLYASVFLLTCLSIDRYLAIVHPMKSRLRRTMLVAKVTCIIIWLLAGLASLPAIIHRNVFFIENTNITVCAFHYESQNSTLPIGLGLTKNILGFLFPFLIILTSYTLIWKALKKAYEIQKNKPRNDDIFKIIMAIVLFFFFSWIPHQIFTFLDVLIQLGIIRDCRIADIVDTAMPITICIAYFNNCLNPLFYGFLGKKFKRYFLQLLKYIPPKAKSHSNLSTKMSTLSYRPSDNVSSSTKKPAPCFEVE
Provide a numeric answer, followed by its unit.

Qu. # return recorded EC50 for entry CCCCc1nc(Cl)c(C(=O)O)n1Cc1ccc(-c2cc(-c3cc(N(C)C)ccn3)ccc2-c2nn[nH]n2)cc1 [Example 422]
Ans. 0.209 µM

Qu. # return recorded EC50 for entry CCCc1nc(CC)c(C(=O)NCC(F)(F)F)n1Cc1ccc(-c2cc(-c3ccccc3)ccc2-c2nn[nH]n2)cc1 [Example 397]
Ans. 0.124 µM

Qu. # return recorded EC50 for entry CCCCc1nc(Cl)c(C(=O)O)n1Cc1ccc(-c2cc(-c3ccccc3)ccc2-c2noc(=O)[nH]2)cc1 [Example 404]
Ans. 0.0704 µM

Qu. # return recorded EC50 for entry CCCCc1nc(Cl)c(C(=O)O)n1Cc1ccc(-c2cc(-c3c[nH]c4ccccc34)ccc2-c2nn[nH]n2)cc1 [Example 391]
Ans. 0.181 µM
